tested on: Enterobacter aerogenes; assay: Log10 reduction of viable facultative anaerobic bacteria in high-TDS buffer after biocide contact; type: cell-based; settings: contact time 4 hours; TDS 30,000 mg l^-1; pH 8 phosphate buffer, room temperature; versus control; ppm active per example; 8 = complete kill
reported-property: Log10 Reduction Facultative Anaerobes

Example results:
compound | endpoint-result
ClC=CC[N+]12CN3CN(CN(C3)C1)C2.[Cl-] [Example 12] | 1
CCCCCCCCCCCCCC[P+](CCCC)(CCCC)CCCC.[Cl-] [Example 9] | 2
ClC=CC[N+]12CN3CN(CN(C3)C1)C2.[Cl-] [Example 11] | 0

Next:
What value of Log10 Reduction Facultative Anaerobes on Enterobacter aerogenes does CCCCCCCCCCCCCC[P+](CCCC)(CCCC)CCCC.[Cl-] [Example 10] have?
8
